- ASSAY_INFO: NCI Yeast Anticancer Drug Screen. Data for the rad50EPP+ strain (AID 151)
- CONDITIONS: S. cerevisiae rad50 mutant strain, at 33.0 µM
Compounds without any hit were thinned out: in the full panel of roughly 79,000, 15% have a hit. Calls of active or inactive are those of the source. Rule as the data show it: active = growth inhibition above about 70%; inactive = the rest.
Outcomes you can answer with include only these: T for active, F for inactive

// return assay outcome for CC(=O)SC(C[N+](=O)[O-])c1ccccc1 (stereo unspecified)
T

// return assay outcome for O=c1[nH]c(-c2ccccc2)nc2c1sc1nc3ccccc3n12
F

// return assay outcome for CCN(CC)CCNc1ccc([N+](=O)[O-])c2nc3ccccc3c(N)c12
F

// return assay outcome for CN(C)c1nc(=Nc2cccc(Cl)c2)ss1
T

// return assay outcome for COc1ccc(/C=C/C(=O)c2ccccc2)cc1OC
F

// return assay outcome for CC(C)C(C)/C=C\C(C)C1CCC2C3=CC=C4CC(O)CCC4(C)C3CCC21C (stereo unspecified)
F

// return assay outcome for CC1=C(C(=O)NCc2ccccc2)C(c2ccccc2)C(C(=O)NCc2ccccc2)=C(C)N1
F

// return assay outcome for Cc1ccc2c3ccc4c(c3n(C)c2c1)C(=O)C=CC4=O
T

// return assay outcome for CN(C)c1ccc2c(SCC(=O)OCC(=O)[C@@]3(O)CC[C@H]4[C@@H]5CCC6=CC(=O)C=C[C@]6(C)[C@H]5C(=O)C[C@@]43C)c3ccc(N(C)C)cc3nc2c1
F

// return assay outcome for CCOC1(c2cccc([N+](=O)[O-])c2)c2ccccc2Oc2ccccc21
F

// return assay outcome for CCCCC/C(=C(\C#N)C(=O)OCC)c1ccccc1
F

Cited source for all entries: PubChem BioAssay (NCI)
